The following compounds were reported with IC50 values on Proto-oncogene tyrosine-protein kinase Src (Homo sapiens) in different studies.

>>> df
                                   compound                                 tested_on  reported_metric  test_result
0  COc1ccc(-c2noc(-c3cnc(Oc4ccc5cc(C(=O)N6CCN(Cc7ccc(OCC(F)(F)F)cc7)CC6)n(C)c5c4)cn3)n2)cc1  Proto-oncogene tyrosine-protein kinase Src (Homo sapiens)             IC50      > 10 µM
1  COc1ccc(C(c2c[nH]c3ccccc23)N(C)c2ccccc2)cc1 (stereo unspecified)  Proto-oncogene tyrosine-protein kinase Src (Homo sapiens)             IC50     > 150 µM
2  COc1cc2ncnc(Nc3cccc(Cl)c3F)c2cc1CN1CCC[C@@H]1C(=O)N(C)C  Proto-oncogene tyrosine-protein kinase Src (Homo sapiens)             IC50      > 10 µM
3  Clc1cc(Nc2ncnc3ccsc23)ccc1-c1nc2ccccc2s1  Proto-oncogene tyrosine-protein kinase Src (Homo sapiens)             IC50      > 10 µM
4  Cc1nc2cc(-n3ncc(C(=O)c4cc5ccc(Br)cc5[nH]4)c3N)ccc2[nH]1  Proto-oncogene tyrosine-protein kinase Src (Homo sapiens)             IC50      > 50 µM

Then this compound:
// IC50 (Proto-oncogene tyrosine-protein kinase Src (Homo sapiens)) for CC(C)COC(=O)Nc1ccc(-c2cnc3c(-c4cccc(N5CCN(S(C)(=O)=O)CC5)c4)cnn3c2N)cc1 = > 1 µM
